- experimental.system: T1, human CRF2α receptor (human) (UniProt Q13324)
- T1 sequence: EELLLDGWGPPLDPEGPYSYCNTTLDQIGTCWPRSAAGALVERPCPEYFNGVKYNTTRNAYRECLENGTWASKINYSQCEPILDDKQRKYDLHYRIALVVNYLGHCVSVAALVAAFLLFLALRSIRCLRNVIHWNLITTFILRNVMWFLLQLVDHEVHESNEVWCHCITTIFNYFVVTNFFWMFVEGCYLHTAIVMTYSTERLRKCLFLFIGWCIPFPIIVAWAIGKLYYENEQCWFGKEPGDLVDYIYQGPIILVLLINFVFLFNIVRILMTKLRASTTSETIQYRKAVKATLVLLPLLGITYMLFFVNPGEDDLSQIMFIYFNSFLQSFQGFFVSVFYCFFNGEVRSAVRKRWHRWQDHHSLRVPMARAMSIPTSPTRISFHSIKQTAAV
- protocol: cell-based or functional assay
Ends that are not written are not given here.
# EC50 of adenylate cyclase stimulation (cAMP) per entry

Reference set (2 entries):
YADAIFTNSYRKVLGQLSARKLLQDIMSRQQGESNQERGARARL (peptide, UniProt P01286 32-75, looked up, ends and bridges not checked) [hGRF] ... > 1000 nM
SQEPPISLDLTFHLLREVLEMTKADQLAQQAHNNRKLLDIA (peptide, UniProt Q95MI6 148-188, looked up) [bovine CRF] ... 100 nM

Exercise: For FHLLREVLEMARAEQLAQQAHSNRKLMEII (peptide, UniProt P06850 165-194, looked up, d-Phe (position not given)) [d-Phe r/hCRF(12-41)] , write its EC50 of adenylate cyclase stimulation (cAMP).
Key: > 1000 nM

Exercise: Quickly give me recorded EC50 of adenylate cyclase stimulation (cAMP) for SQEPPISLDLTFHLLREVLEMTKADQLAQQAHNNRKLLDIA-OH (peptide, UniProt Q95MI6 148-188, looked up) [deamidated bovine CRF]
Key: > 1000 nM
